# System: CAKI-1 renal
# protocol.notes: NCI-60 one-dose screen, 48 h (100 = growth as untreated, 0 = no growth, -100 = all killed)
# condition.label: 10 µM unless noted
About 83,000 compounds went through this panel and 20% of them were active in at least one assay; those are over-represented in the sample as a whole.
measurement.type: growth (%)
Give a bare numeral; the unit % is implied.

Please fill in: growth reported for O=C(CCN1CCOCC1)Nc1cccc(-n2cc(-c3ccncc3)c(-c3ccc(Cl)c(O)c3)n2)c1 = 38.6

Please fill in: growth reported for C[C@]12CCc3c(ccc4cc(O)ccc34)[C@@H]1C[C@H](O)[C@@H]2O = 77.5

Please fill in: growth reported for Nc1nc2ccccc2c2c(=O)c3ccc(Cl)cc3sc12 = 89

Please fill in: growth reported for O=C(Nc1ccccc1C(=O)N/N=C(\c1ccccc1)c1ccccn1)c1ccccc1 = 16.9

Please fill in: growth reported for CC(=O)OC[C@]12CCC(C)(C)C=C1[C@H]1CC[C@@H]3[C@@]4(C)CCCNC(C)(C)[C@@H]4CC[C@@]3(C)[C@]1(C)CC2 = 88.9

Please fill in: growth reported for OB(O)c1ccsc1-c1nc2ccc3[nH]ncc3c2c2c1CCCC2 = 13.7

Please fill in: growth reported for CC(=O)c1nn(-c2ccccc2)/c(=N/N=Cc2cn(-c3ccccc3)nc2-c2cc3ccccc3oc2=O)s1 = 88.5

Please fill in: growth reported for O=C(/C=C/c1ccc(Cl)s1)c1ccc(Cl)s1 = 92.4

Please fill in: growth reported for CN1CCN(c2ccc(Nc3ncc(C(N)=O)c(NCCCNC(=O)C4CCC4)n3)cc2)CC1 = 35.1

* * *

# Tested on: SR leukemia
# protocol.notes: NCI-60 one-dose screen, 48 h
# condition.label: 10 µM unless noted
The panel holds about 83,000 compounds, 20% with a hit somewhere; the sample as a whole holds those more often. The source made the active and inactive calls. Rule for the calls: active = growth percent below 10; inactive = the rest.
Please answer using one outcome listed in active, inactive

Asked: Tell me the recorded outcome of this test for CCOC(=O)C(=Cc1ccc(C#N)cc1)C(=O)OCC .
Given back: active

Asked: Tell me the recorded outcome of this test for COC(=O)c1c2c(c(C)[n+]([O-])c1C)C(=O)C(NCCN1CCOCC1)=CC2=O .
Given back: inactive

Asked: Tell me the recorded outcome of this test for [2H]C([2H])([2H])Oc1cccc(/C=C/C(=O)/C=C(/C=C/c2cccc(OC([2H])([2H])[2H])c2OC([2H])([2H])[2H])OB(F)F)c1OC([2H])([2H])[2H] .
Given back: inactive

Asked: Tell me the recorded outcome of this test for Cc1nc2sc(C(=O)Nc3cccc4ccccc34)c(N)c2cc1C(=O)/C=C/c1ccccc1 .
Given back: inactive

Asked: Tell me the recorded outcome of this test for CCOC(=O)c1c(-c2ccc(C)cc2)c(C#N)c(=O)n(-c2cccc(C(F)(F)F)c2)c1N .
Given back: inactive

Asked: Tell me the recorded outcome of this test for CN1C(=O)/C(=C/c2ccc(C(=O)Nc3ncc(Cc4ccccc4Cl)s3)cc2)SC1=S .
Given back: inactive

Asked: Tell me the recorded outcome of this test for CC(=O)N1N=C(c2ccc(Nc3nc(Nc4ccc(F)cc4)nc(Nc4ccc(Cl)cc4)n3)cc2)CC1c1ccc(N(C)C)cc1 (stereo not given) .
Given back: active

Asked: Tell me the recorded outcome of this test for CCCn1nc(C(=O)N2CCCCC2)c2c1CCC(N1CCC(c3ccncc3)CC1)C2 (stereo not given) .
Given back: inactive

Asked: Tell me the recorded outcome of this test for Cn1cc(-c2nonc2-c2cn(C)c3ccc(Br)cc23)c2ccccc21 .
Given back: inactive

Asked: Tell me the recorded outcome of this test for CC1=C2[C@@H](CC1)[C@]1(C)O[C@@](C(C)C)(C[C@H]1OC(=O)CO)[C@H]2OC(=O)C1CC1c1ccccc1 (stereo not given in full) .
Given back: inactive

Asked: Tell me the recorded outcome of this test for CCCCCCNC(=O)Oc1ccc(/C(=C(/CC)Cc2ccccc2)c2ccc(OCCCN(C)C)cc2)cc1 .
Given back: active

Asked: Tell me the recorded outcome of this test for COc1ccc(/C=C/C(=O)c2cc3c(N)c(C(=O)Nc4ccccc4)sc3nc2C)cc1 .
Given back: inactive

Asked: Tell me the recorded outcome of this test for COC(=O)c1nc(-c2ccc(C)cc2)oc1S(=O)(=O)c1ccc(Cl)cc1 .
Given back: active

Asked: Tell me the recorded outcome of this test for CCCCCCCCN(CCCCCCCC)CC(O)c1cc(Cl)ccc1OC (stereo not given) .
Given back: inactive

Asked: Tell me the recorded outcome of this test for CN1CCN(Cc2ccc(NC(=O)c3nc4ccc5[nH]ncc5c4c4c3CCCC4)cc2C(F)(F)F)CC1 .
Given back: active

Asked: Tell me the recorded outcome of this test for Fc1ccccc1-c1cnn2cc(-c3ccccc3)cnc12 .
Given back: inactive

Asked: Tell me the recorded outcome of this test for O=C(N=Nc1c(O)[nH]c2ccccc12)Nc1ccccc1Cl .
Given back: inactive

Asked: Tell me the recorded outcome of this test for COc1ccc(-c2cc(-c3cc(OC)c(OC)c(OC)c3)c(C#N)c(=O)n2CCCCC(=O)O)cc1 .
Given back: inactive

Asked: Tell me the recorded outcome of this test for COc1cc(/C=C2/C=C(c3ccc(C(C)(C)C)cc3)N(CCc3ccc(S(N)(=O)=O)cc3)C2=O)cc(OC)c1OC .
Given back: inactive

Asked: Tell me the recorded outcome of this test for Cc1ccc(S(=O)(=O)OC[C@@]2(C)CC[C@]3(C)CC[C@]4(C)C(=C3C2)C=C[C@@H]2[C@@]3(C)CCCNC(C)(C)[C@@H]3CC[C@]24C)cc1 .
Given back: active

Asked: Tell me the recorded outcome of this test for COc1ccc(Cn2cc(C(=O)Nc3cccnc3Nc3ccccc3)nn2)cc1 .
Given back: inactive

Asked: Tell me the recorded outcome of this test for O=C(N=Nc1c(O)[nH]c2ccccc12)Nc1ccc(Br)cc1 .
Given back: inactive

Asked: Tell me the recorded outcome of this test for COc1ccc(-c2[nH]c3ccccc3c2-c2ccc(OC)cc2)cc1 .
Given back: active

Asked: Tell me the recorded outcome of this test for CC/C(=C(/c1ccc(O)cc1)c1ccc(OCCN2CCCCCC2)cc1)c1ccc(Cl)cc1 .
Given back: active

Asked: Tell me the recorded outcome of this test for COc1ccc(-c2csc(NC(=O)CN3CCN(CCO)CC3)n2)cc1NS(=O)(=O)c1cccc2c(N(C)C)cccc12 .
Given back: active

* * *

# Test system: SR leukemia
# protocol.notes: NCI-60 one-dose screen, 48 h
# condition.label: 10 µM unless noted
# Procedure: Growth inhibition of the SR human tumor cell line is measured as a screen for anti-cancer activity. Cells are grown in 96 well plates and exposed to the test compound for 48 hours. Compounds are tested at a single concentration, which is 10^-5 M for most compounds. The reported endpoint is percent growth (GI% or GIPRCNT), where numbers from 0 - 100% represent growth inhibition, and numbers from -100% - 0 represent cell death. For example, a value of 40 represents 60% growth inhibition. […]
Compounds without any hit were thinned out: in the full panel of roughly 83,000, 20% have a hit. The source made the active and inactive calls. How the source made its calls: active means growth percent below 10; inactive means the rest.
Please answer using one outcome listed in yes (1) (active), no (0) (inactive)

Asked: Tell me the recorded outcome of this test for O=C(N/N=C/c1ccc(O)cc1O)c1cccc(Nc2ccnc(C(F)(F)F)c2)c1 .
Given back: no (0)

Asked: Tell me the recorded outcome of this test for c1ccc(Cc2cccc[n+]2C(c2ccccc2)c2ccccc2)cc1 .
Given back: no (0)

Asked: Tell me the recorded outcome of this test for Cc1cc(N2CCCCC2)nc(NCc2cc(Nc3ccnc4cc(Cl)ccc34)ccc2F)n1 .
Given back: yes (1)

Asked: Tell me the recorded outcome of this test for CCOC(=O)C1=C(C)N=C2SC=C(c3ccc(F)cc3)N2[C@H]1c1cn(-c2ccccc2)nc1-c1ccc(Cl)cc1 .
Given back: no (0)

Asked: Tell me the recorded outcome of this test for Nc1c(C(=O)Nc2ccncc2)sc2nc3c(cc12)CCCCCCCC3 .
Given back: yes (1)

Asked: Tell me the recorded outcome of this test for N#Cc1ccccc1OCC(=O)Nc1nc2c(s1)COc1ccccc1-2 .
Given back: yes (1)

Asked: Tell me the recorded outcome of this test for CCCCCCCCCCCCC[C@H](O)C[C@H](O)[C@H](C)N .
Given back: yes (1)

Asked: Tell me the recorded outcome of this test for O=C(CCCCCCCCC(=O)N/N=C\c1ccccc1O)N/N=C\c1ccccc1O .
Given back: no (0)

Asked: Tell me the recorded outcome of this test for COC(=O)/C=C1/SC(N2N=C(c3cccs3)CC2c2ccc(F)cc2)=NC1=O (stereo unspecified) .
Given back: yes (1)

Asked: Tell me the recorded outcome of this test for COc1cc(/C=C/C(=O)c2ccc(NC(=O)CSc3nnc(-c4cc(-c5ccccc5)nc5ccccc45)n3-c3ccccc3)cc2)cc(OC)c1OC .
Given back: no (0)

Asked: Tell me the recorded outcome of this test for C/C=C(/C)C(=O)O[C@@H]1CC(C)(C)CC2C34OC(=O)[C@@]21CC[C@@]3(C)[C@]1(C)CCC2C(C)(C)C(=O)CC[C@]2(C)C1C[C@@H]4Cl (stereo partly specified) .
Given back: no (0)

Asked: Tell me the recorded outcome of this test for COc1cc(-c2nn(-c3cccc(NC(=O)CCN4CCN(C)CC4)c3)cc2-c2ccncc2)ccc1Cl .
Given back: yes (1)

Asked: Tell me the recorded outcome of this test for CN1CCN(Cc2ccc(NC(=O)c3cccc(C#Cc4c(N)ncc5ccc(F)cc45)c3)cc2C(F)(F)F)CC1 .
Given back: yes (1)

Asked: Tell me the recorded outcome of this test for O=[N+]([O-])c1ccc2[nH]c3nccc(NCc4cccc(Cl)c4)c3c2c1 .
Given back: no (0)

Asked: Tell me the recorded outcome of this test for Cc1cc(N2CCN(CC(=O)Nc3ccc4c(ccn4Cc4ccccc4)c3)CC2)nc(N2CCCCCC2)n1 .
Given back: no (0)

Asked: Tell me the recorded outcome of this test for CCOC(=O)N(O)c1ccc(/C=C/c2ccccc2)cc1 .
Given back: no (0)

Asked: Tell me the recorded outcome of this test for Cc1ccc(/C=C/c2c(C(=O)/C=C/c3ccccc3)c(C)nc3ccccc23)cc1 .
Given back: no (0)

Asked: Tell me the recorded outcome of this test for Cc1c(O)c(O)cc2c3c(oc12)CC(c1ccc2c(c1)OCO2)CC3=O (stereo unspecified) .
Given back: no (0)

Asked: Tell me the recorded outcome of this test for CCOC(=O)c1ccc(Nc2ncnc3c2cnn3-c2cccc(F)c2)cc1 .
Given back: no (0)

Asked: Tell me the recorded outcome of this test for COC(=O)c1nc(-c2ccc(C)cc2)oc1Sc1ccc(C)cc1 .
Given back: no (0)

Asked: Tell me the recorded outcome of this test for O=C(Nc1ccc2ncsc2c1)c1csc(Nc2ccc3[nH]ncc3c2)n1 .
Given back: no (0)

Asked: Tell me the recorded outcome of this test for N#CSc1c[nH]c2ccc(/C=C/C(=O)/C=C(/C=C/c3ccc4[nH]cc(SC#N)c4c3)OB(F)F)cc12 .
Given back: yes (1)

Asked: Tell me the recorded outcome of this test for O=C(Cn1cc(CN2CCN(c3ccnc4cc(Cl)ccc34)CC2)nn1)Nc1cccc([N+](=O)[O-])c1 .
Given back: no (0)

Asked: Tell me the recorded outcome of this test for COC(=O)[C@H]1Cc2c([nH]c3ccccc23)[C@@H](c2cccs2)N1 .
Given back: no (0)

Asked: Tell me the recorded outcome of this test for CC(=O)OC[C@]12CCC(C)(C)C=C1[C@H]1CC[C@@H]3[C@@]4(C)CCCNC(C)(C)[C@@H]4CC[C@@]3(C)[C@]1(C)CC2 .
Given back: no (0)

Asked: Tell me the recorded outcome of this test for O=C1/C(=C/c2ccc(-c3ccccc3C(F)(F)F)o2)SC(=S)N1CCc1ccc(O)cc1 .
Given back: no (0)
